- TESTED_ON: DHODH (Homo sapiens (Human))
METRIC: IC50 (nM)

// known answers, use as guide
- MOLECULE: "Cc1cc(C(=O)O)c2nc(-c3ccc(-c4ccccc4)cc3)n(CCO)c2c1"
  UNIT_OF_MEASURE: "nM"
  RESULT_NUMBER: 4790
- MOLECULE: "Cc1cc(C(=O)O)c2nc(-c3c(F)c(F)c(-c4ccc(NC(=O)C5CCCN5)cc4)c(F)c3F)[nH]c2c1 (stereo not drawn)"
  UNIT_OF_MEASURE: "nM"
  RESULT_NUMBER: 56
- MOLECULE: "O=C(O)c1cc(Cl)cc2[nH]c(-c3ccc(-c4ccccc4)cc3F)nc12"
  UNIT_OF_MEASURE: "nM"
  RESULT_NUMBER: 659
- MOLECULE: "Cc1cc(-c2nnn[nH]2)c2nc(-c3c(F)c(F)c(-c4ccccc4)c(F)c3F)[nH]c2c1"
  UNIT_OF_MEASURE: "nM"
  RESULT_NUMBER: 1200
- MOLECULE: "Cc1cc(C(=O)O)c2[nH]c(-c3ccc(-c4ccccc4)nc3)nc2c1"
  UNIT_OF_MEASURE: "nM"
  RESULT_NUMBER: 3820
- MOLECULE: "Cc1cc(C(N)=O)c2nc(-c3c(F)c(F)c(-c4ccccc4)c(F)c3F)[nH]c2c1"
  UNIT_OF_MEASURE: "nM"
  RESULT_NUMBER: 446

(P) Cc1cc(C(=O)O)c2nc(-c3ccc(-c4ccc(OCc5cccnc5)cc4)cc3)[nH]c2c1
(Q) Cc1cc(C(=O)O)c2[nH]c(-c3ccc(-c4ccc(F)cc4F)cc3)nc2c1
### Prompt Given P and given Q , which shows the smaller recorded IC50? Which one? Tell me its label.
### Response P

(P) Cc1cc(C(=O)O)c2nc(-c3ccc(-c4cccnc4)cc3)[nH]c2c1
(Q) O=C(O)c1cccc2nc(-c3ccc(-c4ccccc4)cc3F)[nH]c12
(R) Cc1cc(C(=O)O)c2[nH]c(-c3c(F)c(F)c(-c4cccc(O)c4)c(F)c3F)nc2c1
### Prompt Ascending by IC50, please. Write out the labels following the order that was asked for.
### Response R, P, Q

(A) Cc1cc(C(=O)O)c2nc(-c3ccc(-c4cccc(OCc5ccccc5)c4)cc3)[nH]c2c1
(B) O=C(O)c1cccc2[nH]c(-c3c(F)c(F)c(-c4cccc(F)c4F)c(F)c3F)nc12
(C) O=C(O)c1cccc2[nH]c(-c3ccc(-c4ccccc4F)cc3)nc12
### Prompt Order the 3 molecules from highest to lowest IC50. Write out the labels following the order that was asked for.
### Response A, C, B
(A: 1200 nM, C: 490 nM, B: 209 nM)

(A) Cc1cc(C(=O)O)c2nc(-c3ccc(-c4ccc(OCCCN5CCCCC5)cc4)cc3)[nH]c2c1
(B) O=C(O)c1cccc2[nH]c(-c3c(F)c(F)c(-c4ccsc4)c(F)c3F)nc12
(C) Cc1cc(C(=O)O)c2nc(-c3c(F)c(F)c(-c4ccsc4)c(F)c3F)[nH]c2c1
(D) Cc1cc(C(=O)O)c2nc(-c3c(F)c(F)c(-c4ccc(F)cc4)c(F)c3F)[nH]c2c1
(E) O=C(O)c1cccc2[nH]c(-c3ccc(OCc4ccccc4)cc3)nc12
### Prompt Order the 5 molecules from highest to lowest IC50. Write out the labels following the order that was asked for.
### Response E, A, B, D, C

(a) O=C(O)c1cccc2[nH]c(-c3c(F)c(F)c(-c4ccc(OCc5ccccc5)cc4)c(F)c3F)nc12
(b) Cc1cc(C(=O)O)c2nc(-c3ccc(-c4ccc(OCc5ccccn5)cc4)cc3)[nH]c2c1
(c) O=C(O)c1cccc2[nH]c(-c3c(F)c(F)c(-c4cc(F)cc(F)c4)c(F)c3F)nc12
(d) Cc1cc(C(=O)O)c2[nH]c(-c3ccc(-c4ccccc4OCc4ccccc4)cc3)nc2c1
### Prompt Order the 4 molecules from highest to lowest IC50. Write out the labels following the order that was asked for.
### Response b, d, a, c

(P) Cc1cc(C(=O)O)c2nc(-c3ccc(-c4ccc(OCCCN5CCOCC5)cc4)cc3)[nH]c2c1
(Q) Cc1cc(C(=O)O)c2[nH]c(-c3ccc(-c4ccccc4)cc3F)nc2c1
(R) Cc1cc(C(=O)O)c2nc(-c3c(F)c(F)c(-c4cccc(NC(=O)C5CCCN5)c4)c(F)c3F)[nH]c2c1 (stereo not drawn)
### Prompt Order the 3 molecules from highest to lowest IC50. Write out the labels following the order that was asked for.
### Response P, R, Q

====

- TESTED_ON: DHODH (Homo sapiens (Human), UniProt Q02127)
- Sequence (Q02127 whole entry): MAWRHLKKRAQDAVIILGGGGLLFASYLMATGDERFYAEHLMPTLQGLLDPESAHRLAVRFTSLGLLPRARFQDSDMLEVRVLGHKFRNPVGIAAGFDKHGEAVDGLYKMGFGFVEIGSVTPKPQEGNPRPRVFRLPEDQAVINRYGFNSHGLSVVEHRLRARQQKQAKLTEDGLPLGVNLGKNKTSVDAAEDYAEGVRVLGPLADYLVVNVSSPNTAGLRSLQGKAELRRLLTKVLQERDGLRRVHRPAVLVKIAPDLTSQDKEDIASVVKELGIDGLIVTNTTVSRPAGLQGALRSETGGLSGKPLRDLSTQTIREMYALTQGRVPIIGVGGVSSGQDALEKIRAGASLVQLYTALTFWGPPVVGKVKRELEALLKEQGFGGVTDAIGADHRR
- ASSAY_TEXT: DHODH activity assay (coupled enzyme assay, DCIP reduction, absorbance at 610 nm)
- Type: biochemical
- RUN_PARAMETERS: compound at 10 uM; read-out: inh @ 10 uM hDHODH (%)
METRIC: inhibition at 10 µM (%)

// known answers, use as guide
- STRUCTURE_AS_SMILES: "Cc1cc(C(=O)O)c2[nH]c(-c3ccc(-c4cccc(OCCC5CCNCC5)c4)cc3)nc2c1"
  inhibition at 10 µM / %: 53.4
- STRUCTURE_AS_SMILES: "O=C(O)c1cccc2[nH]c(-c3c(F)c(F)c(-c4ccccc4F)c(F)c3F)nc12"
  inhibition at 10 µM / %: 79.3

(P) O=C(O)c1cccc2nc(-c3ccc(-c4ccc(F)cc4F)cc3F)[nH]c12
(Q) O=C(O)c1cccc2nc(-c3c(F)c(F)c(-c4cccc(OCc5ccccc5)c4)c(F)c3F)[nH]c12
### Prompt P or Q : whose inhibition at 10 µM is greater? Which one? Tell me its label.
### Response Q

====

- System: Jurkat cells
- ASSAY_TEXT: Measurement of cell proliferation (Jurkat cell), XTT assay
- Format: cell-based
- RUN_PARAMETERS: Homo sapiens, Jurkat, 72 h, XTT cell viability
METRIC: EC50 (nM)

// known answers, use as guide
- STRUCTURE_AS_SMILES: "Cc1cc(C(=O)O)c2c(c1)nc(-c1c(F)c(F)c(-c3ccccc3)c(F)c1F)n2C"
  EC50, nM: 41
- STRUCTURE_AS_SMILES: "Cc1cc(C(=O)O)c2nc(-c3c(F)c(F)c(-c4cccnc4)c(F)c3F)[nH]c2c1"
  EC50, nM: 2600

(a) Cc1cc(C(=O)O)c2nc(-c3ccc(-c4ccccc4)cc3)[nH]c2c1
(b) O=C(O)c1cc(Br)cc2[nH]c(-c3ccc(-c4ccccc4)cc3)nc12
### Prompt a or b : whose EC50 is greater? Which one? Tell me its label.
### Response b
(b: 388 nM, a: 263 nM)

(a) Cc1cc(C(=O)O)c2nc(-c3c(F)c(F)c(-c4ccccc4F)c(F)c3F)[nH]c2c1
(b) Cc1cc(C(=O)O)c2[nH]c(-c3ccc(-c4ccccc4F)cc3)nc2c1
### Prompt a or b : whose EC50 is greater? Which one? Tell me its label.
### Response b
(b: 105 nM, a: 33 nM)

(A) O=C(O)c1cccc2[nH]c(-c3c(F)c(F)c(-c4ccccc4)c(F)c3F)nc12
(B) COc1cc(-c2nc3c(C(=O)O)cccc3[nH]2)cc(OC)c1-c1ccccc1
(C) Cc1cc(C(=O)O)c2nc(-c3c(F)cc(-c4ccccc4)cc3F)[nH]c2c1
(D) Cc1cc(C(=O)O)c2nc(-c3c(F)c(F)c(-c4ccccc4)c(F)c3F)[nH]c2c1
### Prompt Ascending by EC50, please. Write out the labels following the order that was asked for.
### Response D, A, C, B

(P) Cc1cc(C(=O)O)c2[nH]c(-c3ccc(-c4ccccc4)cc3F)nc2c1
(Q) O=C(O)c1cc(Cl)cc2nc(-c3ccc(-c4ccccc4)cc3)[nH]c12
(R) Cc1cc(C(=O)O)c2nc(-c3c(F)c(F)c(-c4cc(F)cc(F)c4)c(F)c3F)[nH]c2c1
(S) Cc1cc(C(=O)O)c2nc(-c3ccc(-c4cccnc4)cc3)[nH]c2c1
### Prompt Order the 4 compounds from highest to lowest EC50. Write out the labels following the order that was asked for.
### Response Q, S, P, R

(A) O=C(O)c1cccc2cc(-c3ccc(-c4ccccc4)cc3)[nH]c12
(B) Cc1cc(C(=O)O)c2[nH]c(-c3ccc(-c4ccccc4F)cc3F)nc2c1
(C) O=C(O)c1cccc2[nH]c(-c3ccc(-c4ccccc4)cc3)nc12
### Prompt Order the 3 compounds from highest to lowest EC50. Write out the labels following the order that was asked for.
### Response C, A, B
(C: 645 nM, A: 202 nM, B: 98 nM)

====

- TESTED_ON: DHODH (Homo sapiens (Human))
- ASSAY_TEXT: DHODH activity assay (coupled enzyme assay, DCIP reduction, absorbance at 610 nm)
- Format: biochemical
- RUN_PARAMETERS: compound at 10 uM; read-out: inh @ 10 uM hDHODH (%)
METRIC: inhibition at 10 µM (%)

// known answers, use as guide
- MOLECULE: "Cc1cc(C(=O)O)c2nc(-c3ccc(-c4cccc(O)c4)cc3)[nH]c2c1 [I116]"
  inhibition at 10 µM, %: 78
- MOLECULE: "O=C(O)c1cc(Cl)cc2[nH]c(-c3ccc(-c4ccccc4)cc3F)nc12 [I44]"
  inhibition at 10 µM, %: 97.3
- MOLECULE: "O=C(O)c1cccc2[nH]c(-c3ccc(-c4ccc(OCc5ccncc5)cc4)cc3)nc12 [I183]"
  inhibition at 10 µM, %: 63.9
- MOLECULE: "O=C(O)c1cccc2[nH]c(-c3ccc(-c4ccncc4)cc3)nc12 [I57]"
  inhibition at 10 µM, %: 58
- MOLECULE: "Cc1ccc(C)n1-c1ccc(-c2nc3cccc(C(=O)O)c3[nH]2)cc1 [I185]"
  inhibition at 10 µM, %: 59.4

(1) O=C(O)c1cccc2nc(-c3ccc(-c4ccc(OCCO)cc4)cc3)[nH]c12 [I157]
(2) O=C(O)c1cc(F)cc2nc(-c3ccc4[nH]ccc4c3)[nH]c12 [I36]
(3) Cc1cc(C(=O)O)c2nc(-c3ccc(N4CCCCCC4=O)cc3)[nH]c2c1 [I80]
(4) Cc1cc(C(=O)O)c2nc(-c3ccc(-c4ccc(NC(=O)C5CCNCC5)cc4)cc3)[nH]c2c1 [I90]
### Prompt Ascending by inhibition at 10 µM, please. Write out the labels following the order that was asked for.
### Response 3, 2, 1, 4
(3: 9.4%, 2: 16.1%, 1: 51.8%, 4: 78.8%)

The origin of these recorded values is patent US9006454B2.
